Documented pIC50 across a set of compounds
Experiment: Inhibition of Kaposi's sarcoma herpesvirus wild type LANA CTD (934 to 1162 residues) expressed in Escherichia coli BL21 (DE3) assessed as inhibition of LANA interaction with 5'-Dy682-labeled viral DNA LBS1 probe preincubated with LANA CTD for 60 mins followed by addition of DNA probe and measured after 30 mins by Electrophoretic mobility shift assay
Set-up: species or system Human gammaherpesvirus 8
To interpret pIC50, take it as minus log10 of a concentration measured in moles per litre.

Cc1ccc2cncc(-n3cc(-c4ccc(C(=O)O)cc4)nn3)c2c1: 4.22

Field: next compound
Req: Need pIC50 of O=C(O)c1ccc(-c2cn(-c3cccnc3)nn2)cc1 , thanks.
Resp: 3.36

---

Tested on: Human gammaherpesvirus 8
Assay: Inhibition of Kaposi's sarcoma herpesvirus wild type LANA CTD (934 to 1162 residues) expressed in Escherichia coli BL21 (DE3) assessed as inhibition of LANA interaction with 5'-Dy682-labeled viral DNA LBS1 probe at 250 uM preincubated with LANA CTD for 60 mins followed by addition of DNA probe and measured after 30 mins by Electrophoretic mobility shift assay
Conditions: time 90.0 min
Calls of active or inactive are those of the source. The calls are words filed in the database; no cut-off is given here.
Respond using exactly one of the listed classes: label 1 for active, label 0 for inactive

Worked examples follow.
Cc1ccc2cncc(-n3cc(-c4ccc(C(=O)O)cc4)nn3)c2c1: label 1
O=C(O)c1ccc(-c2cn(-c3cccnc3)nn2)cc1: label 0
Cc1cc(-c2ccccc2O)ncc1-n1cc(-c2ccc(C(=O)O)cc2)nn1: label 0
Cc1cc(-c2cccc(CO)c2)ncc1-n1cc(-c2ccc(C(=O)O)cc2)nn1: label 0
O=C(O)c1ccc(-c2cn(-c3cncc4ccc(Cl)cc34)nn2)cc1: label 0

Req: Please let me know the test result on file for O=C(O)c1ccc(-c2cn(-c3cncc(-c4ccccc4)c3Cl)nn2)cc1 .
Resp: label 0

Req: Kindly provide the recorded test outcome for the following molecule: O=C(O)c1ccc(-c2cn(-c3cnccc3-c3ccccc3)nn2)cc1
Resp: label 0

Req: Identify the outcome logged in this assay for the molecule shown: O=C(O)c1ccc(-c2cn(-c3ccc(Oc4cccnc4)cc3)nn2)cc1
Resp: label 0

---

System: Human gammaherpesvirus 8
Assay: Inhibition of Kaposi's sarcoma herpesvirus C-terminal His-tagged oligomerization deficient LANA DBD (1008 to 1146 residues) K1055E/K1138S/K1140D/K1141D/R1039Q/R1040Q/A1121E/K1109A/D1110A mutant expressed in Escherichia coli BL21(DE3) assessed as inhibition of LANA interaction with 5'-Dy682-labeled viral DNA LBS1 probe at 500 uM preincubated with LANA-DBD for 60 mins followed by addition of DNA probe and measured after 30 mins by Electrophoretic mobility shift assay
Settings: time 90.0 min
Active and inactive are the calls of the source. No cut-off for these calls is given here.
REPORTED_PROPERTY: inhibition

Cc1cc(Sc2ccccc2)ncc1-n1cc(-c2ccc(C(=O)O)cc2)nn1: inactive
Cc1ccc2cncc(-n3cc(-c4ccc(C(=O)O)cc4)nn3)c2c1: 100%
O=C(O)c1ccc(-c2cn(-c3cnccc3Cl)nn2)cc1: 94%
O=C(O)c1ccc(-c2cn(-c3ccc(Oc4cccnc4)cc3)nn2)cc1: 100%
O=C(O)c1ccc(-c2cn(-c3ccc(O)nc3)nn2)cc1: 75%

Req: Lab request: please report inhibition under test system Human gammaherpesvirus 8 for O=C(O)c1ccc(-c2cn(-c3ccc(Nc4ccccc4)nc3)nn2)cc1
Resp: 29%

Req: // map N#Cc1ccc(-n2cc(-c3ccc(C(=O)O)cc3)nn2)cn1 to recorded inhibition (system: Human gammaherpesvirus 8)
Resp: inactive

Req: Provide the documented inhibition with Human gammaherpesvirus 8 as the system for O=C(O)c1ccc(-c2cn(-c3cccnc3)nn2)cc1
Resp: 82%

Req: Lab note: need inhibition with Human gammaherpesvirus 8 for entry Cc1cc(Oc2ccccc2F)ncc1-n1cc(-c2ccc(C(=O)O)cc2)nn1 , please look it up.
Resp: inactive

Req: For Human gammaherpesvirus 8, provide inhibition of Cc1cc(Oc2cccc(F)c2)ncc1-n1cc(-c2ccc(C(=O)O)cc2)nn1 please.
Resp: inactive

Req: Which measured inhibition belongs to Cc1cc(-c2cccc(CO)c2)ncc1-n1cc(-c2ccc(C(=O)O)cc2)nn1 , tested on Human gammaherpesvirus 8?
Resp: 100%
